biological target: T1, BSA (bovine, UniProt P02769); experiment: DELFIA ELISA, coated antigen;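 note: binding of antibody supernatants or protein-A purified antibodies to plate-coated antigen (3 µg/ml recombinant TCR or BSA), 1 h incubation at room temperature, DELFIA readout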
T1 construct: coated at 3 µg/ml; also called bovine serum albumin, control antigen of the DELFIA ELISA
T1 sequence (P02769 25-607 limits assumed): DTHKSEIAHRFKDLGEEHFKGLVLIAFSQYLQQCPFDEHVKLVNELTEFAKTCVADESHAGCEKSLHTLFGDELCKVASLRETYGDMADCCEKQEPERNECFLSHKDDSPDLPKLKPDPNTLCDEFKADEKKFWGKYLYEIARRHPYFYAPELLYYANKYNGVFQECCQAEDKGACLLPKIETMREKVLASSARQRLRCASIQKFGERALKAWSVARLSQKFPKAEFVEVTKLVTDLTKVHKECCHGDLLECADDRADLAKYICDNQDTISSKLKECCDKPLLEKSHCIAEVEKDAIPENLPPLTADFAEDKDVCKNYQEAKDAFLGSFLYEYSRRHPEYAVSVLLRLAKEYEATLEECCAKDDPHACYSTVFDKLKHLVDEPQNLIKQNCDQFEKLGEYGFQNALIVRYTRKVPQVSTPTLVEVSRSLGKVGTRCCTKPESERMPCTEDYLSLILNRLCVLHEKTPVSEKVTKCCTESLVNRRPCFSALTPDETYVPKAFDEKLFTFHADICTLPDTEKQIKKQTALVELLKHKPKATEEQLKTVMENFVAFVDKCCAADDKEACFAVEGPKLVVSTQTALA
Quick list: DELFIA ELISA response (FU) per entry.
Answer in FU, number only, no unit symbol.

Take a look at these entries with their results.
BINDER	DELFIA ELISA response (FU)
G4_27 (antibody, human IgG1, V domains shown, also called 1248_P02_C10; clone G4_27) VH: QVQLVQSGAEVKKPGESLKISCKSSGYSFTSYWIGWVRQMPGKGLEWMGIIYPGDSDTRYSPSFQGQVTFSADESISTAYLQWSSLKASDTAMYYCARHGAYGDYPDTFDIWGQGTLVTVSS VL: SSYELTQDPAVSVALGQTVSITCQGDSLRNFYANWYQQKPGQAPVLVIYGKNNRPSGIPDRFSGSSSGNTASLTITGAQAEDEADYYCNSRDSSGNHLVFGGGTQLTVLG	40
G4_19 (antibody, human IgG1, V domains shown, also called clone G4_19) VH: EVQLVQSGAEVKKPGASVKVSCKASGYTLTSYYMHWVRQAPGQGLEWMGIINPSGGSTSYAQKFQGRVTMTRDTSTSTVYMELSSLRSEDTAVYYCARERGYSYGDGMDVWGQGTTVTVSS VL: SNFMLTQPHSVSESPGKTVTISCTRSSGSIASNYVQWYQQRPGSPPITLIYDDDQRPSGVPHRFSGSIDTSSNPASLTISGLKTEDEADYYCQSYDSSNHVVFGGGTKLTVLG	55
G4_13 (antibody, human IgG1, V domains shown, also called clone G4_13) VH: QVQLVESGAEVKKPGGSLRLSCAASGFTFSSYSMNWVRQAPGKGLEWVSSISGTSSYIYYADSVKGRFTISRDNAKNSLYLQMSSLRAEDTAVYYCARGGLGMVDPWGQGTLVTVSS VL: SNFMLTQPHSVSESPGKTVTISCTRSSGSIASNYVQWYQQRPGSSPSTVIYEDNQRPSGVPDRFSGSIDSSSNSASLTISGLRTEDEADYYCQSYDSSIYVVFGGGTKLTVLG	78
G4_26 (antibody, human IgG1, V domains shown, also called clone G4_26) VH: QVQLVQSGAEVKKPGSSVKVSCKASGGTFSSYAISWVRQAPGQGLEWMGGIIPIFGTANYAQKFQGRVTITADESTSTAYMELSSLRSEDTAVYYCASSRGSGWFPLGYWGQGTLVTVSS VL: SQSGLTQPASVSGSPGQSITISCTGTSSDVGSYNLVSWYQQHPGKAPKLMIYEVSKRPSGVSNRFSGSKSGNTASLTISGLQAEDEADYYCSSFGSGSIFGTGTKLTVLG	51

Pending binder:
Summary for this binder, G4_14 (antibody, human IgG1, V domains shown, also called clone G4_14) VH: EVQLVQSGAEVKKPGESLRISCKGSGYSFTSYWISWVRQMPGKGLEWMGRIDPSDSYTNYSPSFPGHVTISADKSISTAYLQWSSLKASDTAMYYCAADTAHGMDVWGRGTLVTVSS VL: SNFMLTQPHSVSESPGKTVTISCTRSRGSIAGNYVHWYQQRPGRAPTTVIYRDKERPSGVPDRISGSIDSSSNSASLTISGLKTEDEADYYCQSYDSSTHVVFGGGTKLTVLG : DELFIA ELISA response (FU) is 135

These measurements were taken from patent US20230090901A1.
